Test system: Pseudomonas aeruginosa ATCC 9027
Assay: ≥ marks a high value that may be exact or a test limit, other limits are often not marked, values filed in µg/mL are converted to µM
Item-by-item account of MIC
Please respond with the number in µM and leave the unit unwritten.

CC(C)[C@H](N)C(=O)N[C@@H](Cc1c[nH]c2ccccc12)C(=O)N[C@@H](CCCN=C(N)N)C(=O)N[C@@H](Cc1c[nH]c2ccccc12)C(=O)N[C@@H](Cc1c[nH]c2ccccc12)C(=O)N[C@@H](Cc1c[nH]c2ccccc12)C(=O)N[C@@H](CCCN=C(N)N)C(=O)N[C@@H](Cc1c[nH]c2ccccc12)C(=O)N[C@H](C(N)=O)C(C)C :: 32

For CC(C)C[C@H](NC(=O)[C@H](C)NC(=O)[C@H](CCCCN)NC(=O)[C@H](CCCCN)NC(=O)[C@H](CC(C)C)NC(=O)[C@H](Cc1ccccc1)NC(=O)[C@H](CCCCN)NC(=O)[C@H](C)NC(=O)[C@H](CC(C)C)NC(=O)[C@H](Cc1ccccc1)NC(=O)[C@H](CCCCN)NC(=O)[C@H](C)NC(=O)[C@@H](N)Cc1ccccc1)C(N)=O , what is its reported MIC?
65.6

For CC(C)C[C@H](NC(=O)[C@H](CCCCN)NC(=O)[C@H](CCCCN)NC(=O)[C@H](C)NC(=O)[C@H](CC(C)C)NC(=O)[C@H](CCCCN)NC(=O)[C@H](C)NC(=O)[C@H](Cc1c[nH]c2ccccc12)NC(=O)[C@H](CC(C)C)NC(=O)[C@H](CCCCN)NC(=O)[C@H](C)NC(=O)[C@@H](N)Cc1ccccc1)C(N)=O , what is its reported MIC?
35.3

For CC(C)C[C@H](NC(=O)[C@H](C)NC(=O)[C@H](CCCCN)NC(=O)[C@H](CCCCN)NC(=O)[C@H](CC(C)C)NC(=O)[C@H](C)NC(=O)[C@H](CCCCN)NC(=O)[C@H](C)NC(=O)[C@H](CC(C)C)NC(=O)[C@H](CC(C)C)NC(=O)[C@H](CCCCN)NC(=O)[C@H](C)NC(=O)[C@@H](N)Cc1ccccc1)C(N)=O , what is its reported MIC?
7.07

For CC[C@H](C)[C@H](NC(=O)[C@H](CCCCN)NC(=O)[C@H](CCCCN)NC(=O)[C@H](C)NC(=O)[C@@H](NC(=O)[C@H](C)NC(=O)[C@H](CC(C)C)NC(=O)[C@H](C)NC(=O)[C@H](C)NC(=O)[C@H](CCCCN)NC(=O)[C@H](CC(C)C)NC(=O)[C@H](CC(N)=O)NC(=O)[C@@H](N)CC(C)C)C(C)C)C(=O)N[C@@H](CC(C)C)C(N)=O , what is its reported MIC?
32
